src = patent US4895956A

# Tested on: carrageenin-induced paw edema
# assay.name: Inhibitory actions on carrageenin-induced paw edema
# Format: in vivo, rat (male rats of Wistar strain)
# condition: 50 mg/kg, oral, 60 min before 1% λ-carrageenin; 3 hours after induction; vs control group
metric: Inhibition (inhibitory percentage of paw edema) (%)

- compound: "CC(C)c1ccc(C(=O)c2ncc3n2CCC3C(=O)O)cc1 (centres unmarked)"
  val: 51.6
- compound: "O=C(c1ccccc1)c1nc(Br)c2n1CCC2C(=O)O (centres unmarked)"
  val: 48.4
- compound: "O=C(c1ccc(Cl)cc1)c1nc(Br)c2n1CCC2C(=O)O (centres unmarked)"
  val: 50.7
- compound: "COc1ccc(C(=O)c2ncc3n2CCC3C(=O)O)cc1 (centres unmarked)"
  val: 53.9
- compound: "O=C(c1ccccc1Cl)c1nc(Br)c2n1CCC2C(=O)O (centres unmarked)"
  val: 50.1

* * *

# assay.name: Acute toxicity test in mice
# condition: in vivo; male mouse, oral, 14 days observation

- molecule: "CC(C)c1ccc(C(=O)c2ncc3n2CCC3C(=O)O)cc1 (centres unmarked)"
  LD50 at 336 h: "> 3000 mg/kg"
- molecule: "COc1ccc(C(=O)c2ncc3n2CCC3C(=O)O)cc1 (centres unmarked)"
  LD50 at 336 h: "> 3000 mg/kg"
- molecule: "O=C(c1ccc(Cl)cc1)c1nc(Br)c2n1CCC2C(=O)O (centres unmarked)"
  LD50 at 336 h: "> 3000 mg/kg"
- molecule: "O=C(c1ccccc1)c1nc(Br)c2n1CCC2C(=O)O (centres unmarked)"
  LD50 at 336 h: "> 3000 mg/kg"
- molecule: "O=C(c1ccccc1Cl)c1nc(Br)c2n1CCC2C(=O)O (centres unmarked)"
  LD50 at 336 h: "> 3000 mg/kg"

* * *

Reported values of Ulcer formation for individual entries
# Tested on: gastric mucous
# assay.name: Gastric mucous damage test in rats
# Type: in vivo, rat (male rats of Wistar strain)
# condition: 100 mg/kg, oral, rats fasted 18 hours
metric: Ulcer formation

- compound: "CC(C)c1ccc(C(=O)c2ncc3n2CCC3C(=O)O)cc1 (stereo not drawn)"
  metric: "Ulcer formation"
  val: "0/6"
- compound: "O=C(c1ccc(Cl)cc1)c1nc(Br)c2n1CCC2C(=O)O (stereo not drawn)"
  metric: "Ulcer formation"
  val: "0/6"
- compound: "O=C(c1ccccc1Cl)c1nc(Br)c2n1CCC2C(=O)O (stereo not drawn)"
  metric: "Ulcer formation"
  val: "0/6"
- compound: "COc1ccc(C(=O)c2ncc3n2CCC3C(=O)O)cc1 (stereo not drawn)"
  metric: "Ulcer formation"
  val: "0/6"
- compound: "CC(=O)Oc1ccccc1C(=O)O [Aspirin, reference compound]"
  metric: "Ulcer formation"
  val: "6/6"
- compound: "O=C(c1ccccc1)c1nc(Br)c2n1CCC2C(=O)O (stereo not drawn)"
  metric: "Ulcer formation"
  val: "0/6"
